# target or test system: SETD2(1434-1711) (Homo sapiens, UniProt Q9BYW2)
# Construct: SETD2 (1434-1711) Assay; catalogue N/A
# Sequence (Q9BYW2 1434-1711): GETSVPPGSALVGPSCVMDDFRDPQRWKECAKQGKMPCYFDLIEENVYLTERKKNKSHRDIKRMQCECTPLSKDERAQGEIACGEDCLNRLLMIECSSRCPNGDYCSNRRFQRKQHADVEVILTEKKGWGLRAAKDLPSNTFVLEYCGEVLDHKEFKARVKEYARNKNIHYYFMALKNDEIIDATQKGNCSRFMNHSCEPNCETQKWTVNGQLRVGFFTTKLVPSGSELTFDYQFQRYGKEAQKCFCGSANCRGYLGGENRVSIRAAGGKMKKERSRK
# method: SETD2 (1434-1711) assay
# Type: biochemical
# stated conditions: read-out: SETD2 (1434-1711)
reported endpoint: log10 of IC50 (log10 of the value in µM)
Please note: log10 values; quantity IC50; unit µM.

Recorded result, Cc1ccc(F)c2cc(C(=O)Nc3cccc(N4CCN(c5ccccc5)CC4)c3)[nH]c12 , log10 of IC50: -0.10

COC(=O)N1CCC2(CCN(c3cccc(NC(=O)c4cc5c(F)ccc(C)c5[nH]4)c3)CC2)C1 yielded log10 of IC50 of -1.40

Noted for Cc1ccc(F)c2cc(C(=O)NC3CCCC(N4CCN(C(=O)C(C)C)C(C(F)(F)F)C4)C3)[nH]c12 (stereo not drawn) [compound 1171] : its log10 of IC50 reads -1.52

Short answer for Cc1ccc(F)c2cc(C(=O)N[C@H]3CCC[C@@H](c4cccnc4)C3)[nH]c12 : log10 of IC50 was 0.46

Value of measured log10 of IC50 for the entry CCc1c(C(=O)N[C@H]2CC[C@H](NC(=O)CCN)CC2)[nH]c2c(C)cccc12 : 1.93

In plain terms, NC1CCC(NC(=O)c2cc3cccc(Br)c3[nH]2)CC1 (stereo not drawn) has a documented log10 of IC50 of 1.86

Record Cc1ccc(F)c2cc(C(=O)NC3CCCC(N4CCn5c(nn(C)c5=O)C4)C3)[nH]c12 (stereo not drawn) . Reported log10 of IC50: 0.68

Looking up COC(=O)CC(NC(=O)c1cc2cccc(C)c2[nH]1)c1cccc(Br)c1 (stereo not drawn) , I found its log10 of IC50 recorded as 1.55

====

# target or test system: SETD2(1434-1711) (Homo sapiens)
# Construct: SETD2 (1434-1711) Assay; catalogue N/A
# method: SETD2 (1434-1711) assay
# Assay type: biochemical
# stated conditions: read-out: SETD2 (1434-1711)
reported endpoint: IC50 (nM)
Report only the number, with the unit nM understood.

1. Cc1ccc(F)c2cc(C(=O)Nc3cccc(-c4cncn4C)c3)[nH]c12 [compound 197] :: 100

Bench note, SETD2(1434-1711) (Homo sapiens): entry COC1CN(C2CCN(c3cccc(NC(=O)c4cc5c(F)ccc(C)c5[nH]4)c3)CC2)C1 [compound 155] , its IC50 = 50

Readout IC50 for Cc1ccc(F)c2cc(C(=O)Nc3cccc(N4CCC(N5CCC(N)CC5)C4)c3)[nH]c12 (stereo not drawn) [compound 347] , test system SETD2(1434-1711) (Homo sapiens), was 3

====

# target or test system: SETD2(1434-1711) (Homo sapiens)
# Construct: SETD2 (1434-1711) Assay; catalogue N/A
# method: SETD2 (1434-1711) assay
# Format: biochemical
# stated conditions: read-out: SETD2 (1434-1711)
Quick list: IC50 per entry.
Give the value in nM but do not write nM after it.

Worked examples follow.
1. Cc1ccc(F)c2cc(C(=O)Nc3cccc(Cc4ncc[nH]4)c3)[nH]c12 [compound 357] :: 700
2. COC(=O)CC(NC(=O)c1cc2cccc(C)c2[nH]1)c1ccsc1 (stereo not drawn) [compound 649] :: 22300
3. Cc1cccc2cc(C(=O)NC3C4CCC3CC(NC(=O)CCN)C4)[nH]c12 (stereo not drawn) [compound 685] :: 50500

Notebook: Cc1ccc(F)c2cc(C(=O)N[C@@H]3CCC[C@@H](N4CCN5C(=O)N(C)C[C@H]5C4)C3)[nH]c12 [compound 1128] , IC50 read as 300

IC50 reading for Cc1ccc(F)c2cc(C(=O)N[C@@H]3CCC[C@@H](N4CCN5C(=O)NC[C@H]5C4)C3)[nH]c12 [compound 1082] : 600

For record Cc1ccc(F)c2cc(C(=O)Nc3cccc(N4CC5(CN(C)C5)C4)c3)[nH]c12 [compound 135] the listed IC50 is 20

====

# target or test system: SETD2(1434-1711) (Homo sapiens)
# Construct: SETD2 (1434-1711) Assay; catalogue N/A
# method: SETD2 (1434-1711) assay
# Type: biochemical
# stated conditions: read-out: SETD2 (1434-1711)
pIC50: −log10 of the molar value.
Rule: pIC50 of 6 or more gives met; anything lower gives not met.

1) CC(=O)N1CCN(CC2CCCN(C(=O)c3cc4c(F)ccc(C)c4[nH]3)C2)CC1 (stereo not drawn) :: not met
2) Cc1ccc(F)c2cc(C(=O)Nc3cccc(N4CCN(C5CCOC5)CC4)c3)[nH]c12 (stereo not drawn) :: met
3) CCN(C1CCN(C2CCCC(NC(=O)c3cc4c(F)ccc(C)c4[nH]3)C2)C1)S(C)(=O)=O (stereo not drawn) [compound 1122] :: not met

Query: Decide: is the reported value of pIC50 for Cc1cccnc1C(CCC(=O)Nc1cccnc1)NC(=O)c1cc2cccc(C)c2[nH]1 (stereo not drawn) equal to or greater than 6?
Result: not met

Query: Determine whether measured pIC50 meets or exceeds 6 for Cc1cccc2cc(C(=O)Nc3ccn4ccnc4c3)[nH]c12
Result: not met

Query: Does the compound CC(=O)N1CCN([C@H]2CCC[C@@H](NC(=O)c3cc4c(F)ccc(C)c4[nH]3)C2)CC1C (stereo partly drawn) have recorded pIC50 that is 6 or more?
Result: met

Query: Is it the case that Cc1ccc(F)c2cc(C(=O)Nc3cccc(-n4cnc(CN(C)C)n4)c3)[nH]c12 has pIC50 reaching or exceeding 6?
Result: met

Query: Please tell me: is the compound Cc1ccc(F)c2cc(C(=O)Nc3cccc(-c4cccnc4)c3)[nH]c12 at or over 6 in terms of pIC50?
Result: met

Query: # check: pIC50 of Cc1cccc2cc(C(=O)NCc3ccccc3N3CCOCC3)[nH]c12 is greater than or equal to 6
Result: not met

Query: Record Cc1cccc2cc(C(=O)NC3CN(C(=O)CCCN)C3)[nH]c12 ; criterion: pIC50 no lower than 6. Met?
Result: not met

Query: Item Cc1cccc2cc(C(=O)N3CCC4(CCc5ccccc54)C3)[nH]c12 (stereo not drawn) with pIC50 of 6 or above?
Result: not met

Query: Hi team, for Cc1cccnc1C(NC(=O)c1cc2cccc(CC3CCC3)c2[nH]1)C1CC1 (stereo not drawn) , is the recorded pIC50 at or above 6?
Result: not met

====

# target or test system: SETD2(1434-1711) (Homo sapiens)
# Construct: SETD2 (1434-1711) Assay; catalogue N/A
# method: SETD2 (1434-1711) assay
# Assay type: biochemical
# stated conditions: read-out: SETD2 (1434-1711)
pIC50: −log10 of the molar value.
pIC50 for assorted compounds

1) Cc1cccc2cc(C(=O)N3CCN(C(N)=O)CC3)[nH]c12 [compound 787] :: < 3.70
2) Cc1ccc(F)c2cc(C(=O)NC3CCCN(CCC(=O)N(C)C)C3)[nH]c12 (stereo not shown) [compound 378] :: < 5.00
3) Cc1ccc(F)c2cc(C(=O)NC3CCCC(N4CCCOCC4)C3)[nH]c12 (stereo not shown) [compound 388] :: < 5.00

Shift focus to the following entry.
Kindly note the recorded pIC50 for Cc1cccc2cc(C(=O)NC(c3ncccc3Cc3ccccc3)C3CC3)[nH]c12 (stereo not shown) [compound 817] , which is < 3.70

====

# target or test system: SETD2(1434-1711) (Homo sapiens)
# Construct: SETD2 (1434-1711) Assay; catalogue N/A
# method: SETD2 (1434-1711) assay
# Assay type: biochemical
# stated conditions: read-out: SETD2 (1434-1711)
IC50 values by entry

Field: example entries. Status: answers known.
1) CNC(=O)CN1CCCC(NC(=O)c2cc3c(F)ccc(C)c3[nH]2)C1 (stereo not drawn) [compound 384] :: > 10 µM
2) Cc1cccc2cc(C(=O)NCc3ccccc3N3CCCCC3)[nH]c12 [compound 716] :: > 100 µM

Consider the additional molecule presented here.
Just so you know, measured IC50 for Cc1cccc2cc(C(=O)N(C)[C@H]3CC[C@H](N)CC3)[nH]c12 [compound 761] came out at > 200 µM

====

pIC50 by entry:
# target or test system: SETD2(1434-1711) (Homo sapiens)
# Construct: SETD2 (1434-1711) Assay; catalogue N/A
# method: SETD2 (1434-1711) assay
# Type: biochemical
# stated conditions: read-out: SETD2 (1434-1711)
When answering, recall that pIC50 equals minus log10 of the concentration in mol/L, and write that number alone.

Short answer for Cc1ccc(F)c2cc(C(=O)Nc3cccc(N4C[C@H](O)[C@@H](N(C)C)C4)c3)[nH]c12 : pIC50 was 8.00

====

# target or test system: SETD2(1434-1711) (Homo sapiens, UniProt Q9BYW2)
# Construct: SETD2 (1434-1711) Assay; catalogue N/A
# method: SETD2 (1434-1711) assay
# Format: biochemical
# stated conditions: read-out: SETD2 (1434-1711)
reported endpoint: IC50 (nM)
Please reply with the bare figure in nM and do not write the unit itself.

Consider the reported IC50 for these molecules:
1. CC(=O)N1[C@H](C)CN([C@@H]2CCC[C@@H](NC(=O)c3cc4c(F)ccc(C)c4[nH]3)C2)C[C@@H]1C [compound 1096] :: 2400
2. Cc1cccc2cc(C(=O)NCc3cocn3)[nH]c12 [compound 733] :: 147000
3. CCN1CCN(c2cccc(NC(=O)c3cc4c(F)ccc(C)c4[nH]3)c2)CC1=O [compound 88] :: 50
4. CC(=NC#N)N1CCN(C2CCCC(NC(=O)c3cc4c(F)ccc(C)c4[nH]3)C2)CC1 (stereo not shown) [compound 1148] :: 900

Please fill in: IC50 reported for Cc1ccc(F)c2cc(C(=O)Nc3cccc(N4CC[C@@H](N(C)C)C4)c3)[nH]c12 [compound 94] = 20

Summary for this molecule, Cc1ccc(F)c2cc(C(=O)Nc3cccc(N4CCN(C(=O)C5CC5)CC4)c3)[nH]c12 [compound 93] : IC50 is 60

For reference, reported IC50 for Cc1ccc(F)c2cc(C(=O)Nc3cc(Cl)cc(N4CCC(N(C)C)C4)c3)[nH]c12 (stereo not shown) [compound 120] stands at 6

Recorded IC50 (molecule Cc1ccc(F)c2cc(C(=O)Nc3cccc(N4CC5CN(C)CC5C4)c3)[nH]c12 (stereo not shown) [compound 165] ): 10

Reported IC50 of Cc1cc(C(=O)N2CCNCC2)ccc1C(NC(=O)c1cc2cccc(C)c2[nH]1)C1CC1 (stereo not shown) [compound 577] : 21800

// recorded IC50 for Cc1ccc(F)c2cc(C(=O)Nc3cccc4c(N5CCC(N(C)C)CC5)[nH]nc34)[nH]c12 [compound 415] : 100

Measured IC50, Cc1ccc(F)c2cc(C(=O)Nc3cccc(N4CCC(N5CCC(F)(F)CC5)C4)c3)[nH]c12 (stereo not shown) [compound 153] : 50

Field IC50 (entry Cc1ccc(F)c2cc(C(=O)N[C@@H]3CCC[C@@H](N4CCC5(CC4)CNC(=O)N5)C3)[nH]c12 [compound 941] ) reads 1300

Reported IC50 of Cc1ccc(F)c2cc(C(=O)Nc3cccc4c(N5CCN(C)CC5)[nH]nc34)[nH]c12 [compound 391] : 200

Measured IC50, COC(=O)C[C@H](NC(=O)c1cc2cccc(C)c2[nH]1)c1ccc(Cl)cc1 [compound 683] : 48200

// recorded IC50 for CC(=O)N1CC2CCC1CN2C1CCCC(NC(=O)c2cc3c(F)ccc(C)c3[nH]2)C1 (stereo not shown) [compound 961] : 30

Reference source for all entries: patent US12116358B2
